Source listed as patent EP3418270A1.

- Target or test system: human D1 receptors (Homo sapiens, UniProt P21728)
- Construct: endogenously expressed human D1 receptors in SK-N-MC cell line; host or cells: SK-N-MC human neuroblastoma cells
- Sequence (P21728 whole entry): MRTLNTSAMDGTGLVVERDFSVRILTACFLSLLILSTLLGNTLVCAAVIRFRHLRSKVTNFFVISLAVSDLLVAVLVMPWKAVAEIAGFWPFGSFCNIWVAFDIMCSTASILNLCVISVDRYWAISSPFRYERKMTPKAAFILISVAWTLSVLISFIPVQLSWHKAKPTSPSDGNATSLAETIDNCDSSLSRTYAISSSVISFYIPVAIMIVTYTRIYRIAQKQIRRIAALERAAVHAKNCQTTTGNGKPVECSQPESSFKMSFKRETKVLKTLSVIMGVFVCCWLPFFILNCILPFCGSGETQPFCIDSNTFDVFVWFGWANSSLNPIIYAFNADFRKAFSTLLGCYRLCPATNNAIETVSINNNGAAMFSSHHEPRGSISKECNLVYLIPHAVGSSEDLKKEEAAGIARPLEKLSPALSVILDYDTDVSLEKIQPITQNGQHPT
- Measurement notes: Allosteric modulation of human dopamine D1 receptors: dopamine-induced cAMP production (HTRF) in SK-N-MC cells
- Format: cell-based
- Condition summary: potentiation of dopamine Emax, compound at 10 µM
Measurement kind: Potentiation (%) at 10 µM

Solved entries:
Molecule	Potentiation (%) at 10 µM
CN=S(C)(=O)c1ccc(-c2ccccc2OC(F)(F)F)cc1Cl (centres unmarked)	27
CN=S(C)(=O)c1ccc(-c2ccccc2OCF)cc1Cl (centres unmarked)	35
CN=S(C)(=O)c1ccc(-c2ccccc2OC(F)F)cc1 (centres unmarked)	64

a: CS(=N)(=O)c1ccc(-c2ccccc2OC(F)F)cc1 (centres unmarked)
b: CS(=N)(=O)c1ccc(-c2ccccc2OCF)cc1 (racemic)
Kindly identify which of a and b has the larger recorded Potentiation (%) at 10 µM value. Pick one; state its label.
b
(b: 55%, a: 27%)

1: CS(=N)(=O)c1ccc(-c2ccccc2OC(F)(F)F)cc1Cl (centres unmarked)
2: CCS(=N)(=O)c1ccc(-c2ccccc2OCF)cc1 (centres unmarked)
Compare reported Potentiation (%) at 10 µM values for 1 and 2 . Which is lower? Pick one; state its label.
1
(1: 30%, 2: 54%)
